test_system: c-Src SH2;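 note: peptide library displayed on the E. coli surface as eCPX fusions, selected cells deep-sequenced, score is each peptide's frequency after selection divided by its frequency in the input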
run_description: SH2 binding enrichment of the phosphorylated peptide, bacterial display (enrichment ratio); higher = better substrate or ligand; peptides without Tyr show the background
endpoint_label: SH2 binding enrichment

Solved entries (count: 6):
sequence_entry	test_system	SH2 binding enrichment
TQKLAYMELQQ [CENPF_Y700]	c-Src SH2	0.931
KREPQYSSHSS [SIPA1L3_Y1265_G1261R]	c-Src SH2	0.549
EQSNPYMVLDI [ROCK2_Y1197]	c-Src SH2	0.72
KGEDFYYVTCH [FHL1_Y149_C150Y]	c-Src SH2	0.412
RHYVYYYSYLL [PTEN_Y177_R173H]	c-Src SH2	0.536
EKMWTYMRSAE [GRIA4_Y695]	c-Src SH2	0.442

(A) FDKEFYSVHNK [MET_Y1235_YF]
(B) EYFDGYWGYSV [ITGA2B_Y265]
(C) GTFVIYVRFGG [FLNB_Y1687_YF]
Order these by SH2 binding enrichment, descending, and give the full ranking. Return value: ordered labels per request. B, C, A
(B: 1.94, C: 0.782, A: 0.543)
